The entries below come with measured protein stability index values attached.
B1: NCF4 (parent)
chain: FVKILKDFPEEDDPTNWLRCYYYE

Variants of: B1
methodSummary: protein stability index of a GFP-peptide fusion (GPS, HEK-293T) (PSI 1-6); higher = more stable;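 also: lentivirally expressed fusions sorted by FACS into six bins by GFP to DsRed ratio, PSI derived from sequencing read proportions per bin multiplied by bin number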
assayConditions: c terminus: a fixed tail appended

| chainSequence | protein stability index |
| --- | --- |
| FVKILKDFPEEDDATNWLRCYYYE [P14A] | 2.72 |
| FVKILKDFPEEDDPTNWLRCYLYE [Y22L] | 2.24 |
| FYKILKDFPEEDDPTNWLRCYYYE [V2Y] | 2.08 |
| FVKILKDFPEEDDPTNWLRCYAYE [Y22A] | 3.02 |
| FVKILKDWPEEDDPTNWLRCYYYE [F8W] | 3.2 |
| FVKILKDHPEEDDPTNWLRCYYYE [F8H] | 3.3 |
| FVKILKDFPEEDDPTDWLRCYYYE [N16D] | 1.7 |
| FVKILKDFPEEDDPTNALRCYYYE [W17A] | 1.93 |
| FVKILKDFPEEDDPTNWLRCYYWE [Y23W] | 1.78 |
| FVKILKDPPEEDDPTNWLRCYYYE [F8P] | 1.68 |
| FVKIAKDFPEEDDPTNWLRCYYYE [L5A] | 1.02 |
| FVKILKDFPEEDDWTNWLRCYYYE [P14W] | 2.21 |
| FVKWLKDFPEEDDPTNWLRCYYYE [I4W] | 3.72 |
| FPKILKDFPEEDDPTNWLRCYYYE [V2P] | 2.82 |
| FVKILKDFPEEDDPTSWLRCYYYE [N16S] | 1.53 |
| FVKILKDFPEEDDPTNWPRCYYYE [L18P] | 2.42 |
| FVKILKDFPEEDDPTEWLRCYYYE [N16E] | 2.71 |
| FVKILKDFPEEDMPTNWLRCYYYE [D13M] | 3.83 |

Data origin, for the record: the supplement of paper PMC10567573
